System: Mus musculus
Experiment: Protective index, ratio of TD50 for Swiss mouse administered 60 mins before test to ED50 for Swiss mouse administered 60 mins before test
Type: functional
OUTCOME MEASURE: Ratio TD50/ED50
Write no unit; give the number alone.

Check out these entries, answers already filled in.
CCCCCCCn1c(-c2cccc(Cl)c2)n[nH]c1=S
4.2
CCCCn1c(-c2cccc(Cl)c2)n[nH]c1=S
2.7
CCCCCn1c(-c2cccc(Cl)c2)n[nH]c1=S
4.4

If you can, please state the reported Ratio TD50/ED50 value of "CCCCCCn1c(-c2cccc(Cl)c2)n[nH]c1=S" .
4.7

Now the same for "CCCCCCCCCn1c(-c2cccc(Cl)c2)n[nH]c1=S"
6.1

Also "CCn1c(S)nnc1-c1cccc(Cl)c1" , if possible.
2.9

====

compounds and their reported TD50 at 1 h
Assay: Neurotoxicity in ip dosed Swiss mouse assessed as delay in motor coordination administered 60 mins before test by chimney test
Assay type: toxicity, organism-based
Conditions: in vivo

Guide cases for TD50 at 1 h, answers given:
CCn1c(S)nnc1-c1cccc(Cl)c1
742 mg/kg
CCCCCCCCCn1c(-c2cccc(Cl)c2)n[nH]c1=S
640 mg/kg
CCCCCn1c(-c2cccc(Cl)c2)n[nH]c1=S
303 mg/kg
CCCC(CCC)C(=O)[O-].CCCC(CCC)C(=O)[O-].[Mg+2] [MAGNESIUM VALPROATE]
417 mg/kg
CCCCCCCn1c(-c2cccc(Cl)c2)n[nH]c1=S
430 mg/kg

# query: TD50 at 1 h of entry "CCCCn1c(-c2cccc(Cl)c2)n[nH]c1=S"
414 mg/kg

====

Recorded TD50 at 0.5 h values for a group of compounds are listed next.
Experiment: Neurotoxicity in ip dosed Swiss mouse assessed as delay in motor coordination administered 30 mins before test by chimney test
Format: toxicity, organism-based
Conditions: in vivo
// units = mg/kg; emit number, no label

Can you look up the measured TD50 at 0.5 h of "CCCCn1c(-c2cccc(Cl)c2)n[nH]c1=S" for me?
405

Same question for "CCCCCCCCCn1c(-c2cccc(Cl)c2)n[nH]c1=S" please.
713

Likewise for "CCn1c(S)nnc1-c1cccc(Cl)c1" ?
753

====

Experiment: Neurotoxicity in ip dosed Swiss mouse assessed as delay in motor coordination administered 15 mins before test by chimney test
Format: toxicity, organism-based
Conditions: in vivo
OUTCOME MEASURE: TD50 at 0.25 h (mg/kg)
# value in mg/kg; strip the unit string

Answered cases to consult:
CCCCn1c(-c2cccc(Cl)c2)n[nH]c1=S
398
CCCCCn1c(-c2cccc(Cl)c2)n[nH]c1=S
310

Now look at this one.
# get_value(readout='TD50 at 0.25 h', item= "CCCCCCCn1c(-c2cccc(Cl)c2)n[nH]c1=S" )
416

The measurements presented in this section are drawn from ChEMBL document CHEMBL2311432.
